# measuredTarget: Quadruplex DNA
# assayName: Binding affinity to 3'-Cy5-labelled c-MYC G-quadruplex DNA (unknown origin) assessed as dissociation constant by fluorescence quenching analysis
# Assay type: nucleic-acid assay
quantityName: Kd (µM)
Report only the number, with the unit µM understood.

Input line: Can you share its Kd? I mean this compound: "CCn1c2ccccc2c2cc(/C=C/c3sc4ccccc4[n+]3C)ccc21.[I-]"
Output line: 1

====

# measuredTarget: DNA
# assayName: Binding affinity to Duplex DNA (unknown origin) assessed as dissociation constant by fluorescence spectrophotometric analysis
quantityName: pKd
pKd here: minus log base 10 of the concentration, concentration in moles per litre.

Input line: Look up pKd with DNA for this molecule: "CCn1c2ccccc2c2cc(/C=C/c3sc4ccccc4[n+]3C)ccc21.[I-]"
Output line: 5.28

====

# measuredTarget: Quadruplex DNA
# assayName: Binding affinity to KRAS G-quadruplex DNA (unknown origin) assessed as dissociation constant by fluorescence spectrophotometric analysis
# Type: nucleic-acid assay
quantityName: pKd
The meaning of pKd here: minus log10 of the concentration in molar units.

Input line: Write down the reported pKd of "CCn1c2ccccc2c2cc(/C=C/c3sc4ccccc4[n+]3C)ccc21.[I-]" , test system: Quadruplex DNA.
Output line: 6.30

====

# measuredTarget: Quadruplex DNA
# assayName: Binding affinity to c-MYC G-quadruplex DNA (unknown origin) assessed as dissociation constant by fluorescence spectrophotometric analysis
# Assay type: nucleic-acid assay
quantityName: Kd (µM)
Record the value in µM, omitting the unit from your answer.

Input line: Which Kd value belongs to "CCn1c2ccccc2c2cc(/C=C/c3sc4ccccc4[n+]3C)ccc21.[I-]" ?
Output line: 0.7
